- TEST_SYSTEM: JAK1 (Homo sapiens, UniProt P23458)
- Construct: GST; purchased Life Technologies
- Sequence (P23458 whole entry): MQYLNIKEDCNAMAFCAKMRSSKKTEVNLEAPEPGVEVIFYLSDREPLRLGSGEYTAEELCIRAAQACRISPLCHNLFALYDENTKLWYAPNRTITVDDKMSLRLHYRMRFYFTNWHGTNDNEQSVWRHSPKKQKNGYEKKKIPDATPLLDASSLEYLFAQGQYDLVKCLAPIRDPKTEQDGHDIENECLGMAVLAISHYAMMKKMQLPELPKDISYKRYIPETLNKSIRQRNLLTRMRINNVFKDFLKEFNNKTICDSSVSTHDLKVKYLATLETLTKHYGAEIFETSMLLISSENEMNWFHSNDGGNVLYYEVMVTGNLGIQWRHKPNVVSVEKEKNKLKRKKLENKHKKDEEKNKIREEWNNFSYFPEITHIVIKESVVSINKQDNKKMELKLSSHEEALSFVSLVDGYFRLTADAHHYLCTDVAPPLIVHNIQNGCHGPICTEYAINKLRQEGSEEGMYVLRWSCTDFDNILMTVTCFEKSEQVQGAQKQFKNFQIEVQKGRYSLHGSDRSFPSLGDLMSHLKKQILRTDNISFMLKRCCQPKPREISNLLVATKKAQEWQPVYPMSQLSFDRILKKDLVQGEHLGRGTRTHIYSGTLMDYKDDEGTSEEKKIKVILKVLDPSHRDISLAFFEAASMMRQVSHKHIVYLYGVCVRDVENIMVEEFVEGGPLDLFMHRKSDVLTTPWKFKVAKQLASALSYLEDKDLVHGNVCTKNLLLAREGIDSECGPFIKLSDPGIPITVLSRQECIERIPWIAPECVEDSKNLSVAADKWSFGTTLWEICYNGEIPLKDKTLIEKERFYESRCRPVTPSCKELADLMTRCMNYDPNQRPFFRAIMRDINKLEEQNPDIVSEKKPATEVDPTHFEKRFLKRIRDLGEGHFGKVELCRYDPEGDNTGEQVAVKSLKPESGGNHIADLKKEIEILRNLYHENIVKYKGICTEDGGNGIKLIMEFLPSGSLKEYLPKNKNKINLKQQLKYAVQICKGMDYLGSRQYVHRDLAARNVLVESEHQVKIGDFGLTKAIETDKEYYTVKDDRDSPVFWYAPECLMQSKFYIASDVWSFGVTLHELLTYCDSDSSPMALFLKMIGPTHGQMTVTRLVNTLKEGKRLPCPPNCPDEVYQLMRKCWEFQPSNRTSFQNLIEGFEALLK
- PROTOCOL_SUMMARY: Biochemical JAK1 kinase assay (LanthaScreen)
- REPORTED_CONDITIONS: read-out: JAK 1 (pKi) (converted)
METRIC: Ki

COMPOUND	Ki
C=CC(=O)N1CCC(C#N)(C(=O)Nc2cc(-c3ccc(O)cc3)cc3[nH]ncc23)CC1 [Compound 12-41]	> 100 nM
C=CC(=O)N1CC[C@H](Oc2cc(-c3ccc(O)c(F)c3)cc3[nH]ncc23)C1 [Compound 1-5]	> 100 nM
C=CC(=O)N1CC[C@@H](Oc2cc(-c3ccc(O)cc3)cc3[nH]ncc23)C[C@H]1C [Compound 12-29]	> 100 nM

Provide Ki values for the following items, in order.
1. CN(C)C/C=C/C(=O)N1CCC(C)(Oc2cc(-c3ccc(O)cc3)cc3[nH]ncc23)CC1 [Compound 9]
2. C=CC(=O)N1CCC(C)(Oc2cc(-c3ccc(O)cc3)cc3[nH]ncc23)CC1 [Compound 6-3]
3. C=CC(=O)N1CC[C@H](Oc2nc(-c3ccc(O)c(F)c3)cc3[nH]nc(C)c23)C1 [Compound 1-36]
4. C=CC(=O)N1CC(COc2cc(-c3ccc(O)cc3)cc3[nH]nc(C)c23)C1 [Compound 18-5]

Solution:
1. > 100 nM
2. > 100 nM
3. 10 to 100 nM
4. 10 to 100 nM

Problem: Using the record for CN(C)C/C=C/C(=O)N1CCC[C@H](Sc2cc(-c3ccc(O)cc3)cc3[nH]ncc23)C1 [Compound 12-7] , state its measured Ki.
Solution: 10 to 100 nM

Taken from patent US10392368B2.
